Test: protein stability index of a GFP-peptide fusion (GPS, HEK-293T) (PSI 1-6); higher = more stable;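 note: 24-mer peptide tiles fused after GFP, lentivirally expressed, FACS-sorted into six equal bins by GFP/DsRed ratio, decoded by Illumina sequencing, PSI is the read-weighted mean bin number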
Conditions: treatment: MLN4924 1 uM, 8 h; c terminus: a fixed tail appended
Returns one of Condition met or Condition not met; Condition met when protein stability index is >= 4.

[
  {
    "Input sequence": "KGISQTNLITTVTPEKKAEEERDE [EPB41L3]",
    "Category": "Condition met"
  },
  {
    "Input sequence": "DREGYTSFWNDCISSGLRGCMLIE [GOLPH3]",
    "Category": "Condition not met"
  },
  {
    "Input sequence": "SNFDDFPESDILQPVPNTTEPDYK [STK38L]",
    "Category": "Condition met"
  },
  {
    "Input sequence": "HAPKIGSNGVEMAAKFPSGSQRAR [SDE2]",
    "Category": "Condition met"
  },
  {
    "Input sequence": "MAAAAEERMAEEGGGGQGDGGSSL [FBXO28]",
    "Category": "Condition met"
  },
  {
    "Input sequence": "EREMAEIRDQMQQQLNDYEQLLDV [LMNB1]",
    "Category": "Condition met"
  },
  {
    "Input sequence": "EERATRLAELQEQLKAVHEQLAAL [BRD3]",
    "Category": "Condition met"
  },
  {
    "Input sequence": "QSDTLEQREEHELVHVMERSLSPS [RAD54B]",
    "Category": "Condition met"
  },
  {
    "Input sequence": "LCIIWFSFELLVRFFACPSKATFS [KCNA3]",
    "Category": "Condition not met"
  },
  {
    "Input sequence": "LQHMKAVQADQERERQRRLEVERE [LRRC59]",
    "Category": "Condition met"
  },
  {
    "Input sequence": "PGPPGPTGVPGSPGHIGPPGPTGP [EMID1]",
    "Category": "Condition met"
  },
  {
    "Input sequence": "SPRRVGFVGAGRMAGAIAQGLIRA [PYCR3]",
    "Category": "Condition not met"
  },
  {
    "Input sequence": "GGRRRPPASSRNRSPSGSLRSARG [RBMY1A1]",
    "Category": "Condition met"
  },
  {
    "Input sequence": "FYGETVADYFATFVQREEQLQFLI [CDS1]",
    "Category": "Condition not met"
  },
  {
    "Input sequence": "ISFTLYLIGFCMFVLSLVKKHYRL [CDS2]",
    "Category": "Condition not met"
  },
  {
    "Input sequence": "IPKLTPGDNPYMYPEQSKGFHKAG [SPATS1]",
    "Category": "Condition not met"
  },
  {
    "Input sequence": "AGEEDPSGMVTIITGLPLDNPSVL [SMG5]",
    "Category": "Condition not met"
  },
  {
    "Input sequence": "VLVEKYGWPHEDAAQFTDFLIPML [SRPK2]",
    "Category": "Condition not met"
  },
  {
    "Input sequence": "ALLKFKPGAFIAGVPVQPVLIRYP [LPCAT4]",
    "Category": "Condition not met"
  },
  {
    "Input sequence": "EILDYIFSGQIRLNEDTIQDVVQA [GAN]",
    "Category": "Condition not met"
  },
  {
    "Input sequence": "LKRRFSRLENRYEALAKQVASEMR [DAPK3]",
    "Category": "Condition not met"
  },
  {
    "Input sequence": "PAAMGPPGAPPGRDLASVPPELTA [DVL3]",
    "Category": "Condition met"
  },
  {
    "Input sequence": "PFREILCKKLHIPLKAQNDLDISR [P2RY14]",
    "Category": "Condition not met"
  },
  {
    "Input sequence": "WTALHFAAQNGDESSTRLLLEKNA [RIPK4]",
    "Category": "Condition not met"
  },
  {
    "Input sequence": "MEHALREKAKAFWAMRRSYEAIAK [TRIM35]",
    "Category": "Condition not met"
  },
  {
    "Input sequence": "LSWLVWLLLLLLASLLPSARLASP [ADAMTS4]",
    "Category": "Condition not met"
  }
]
